Listed here are binders together with their documented Fold IC50 vs H3/L3.
experimentalSystem: T1, human CD30 (commercial, conjugated to digoxigenin) (human, UniProt P28908 19-379, limits assumed, conjugated to digoxigenin (DIG))
T1 sequence (looked up): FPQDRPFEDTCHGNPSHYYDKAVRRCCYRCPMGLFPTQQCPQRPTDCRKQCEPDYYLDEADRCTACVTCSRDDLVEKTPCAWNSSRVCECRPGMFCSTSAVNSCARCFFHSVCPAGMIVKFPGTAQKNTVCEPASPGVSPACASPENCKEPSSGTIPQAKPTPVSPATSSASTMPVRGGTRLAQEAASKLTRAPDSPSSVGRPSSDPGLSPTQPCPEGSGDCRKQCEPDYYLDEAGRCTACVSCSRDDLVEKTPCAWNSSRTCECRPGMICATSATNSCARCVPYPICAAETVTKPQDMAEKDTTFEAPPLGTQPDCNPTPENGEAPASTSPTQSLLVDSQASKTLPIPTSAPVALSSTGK
protocolSummary: AlphaScreen competition
Your answer is read as fold, so omit the unit and give the number.

| binder | unitTag | Fold IC50 vs H3/L3 |
| --- | --- | --- |
| AC10 H3.40/L3 (antibody, IgG1, name in Kabat numbering, V domains shown) VH: QIQLVQSGPEVKKPGASVKVSCKASGYTFTDYYITWVRQAPGQGLEWMGWIYPGSGNTKYNQKFQGRFVFSVDTSASTAYLQISSLKAEDTAVYFCANYGNYWFAYWGQGTLVTVSS VL: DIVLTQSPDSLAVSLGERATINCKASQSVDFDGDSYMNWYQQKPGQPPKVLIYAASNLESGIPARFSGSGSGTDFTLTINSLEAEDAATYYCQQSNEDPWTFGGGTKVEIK | fold | 1.83 |

Prompt: Please look at this binder and report its Fold IC50 vs H3/L3: AC10 H3.61/L3 (antibody, IgG1, name in Kabat numbering, V domains shown) VH: QIQLVQSGPEVKKPGASVKVSCKASGYTFTDYYITWVRQAPGQGLEWMGWIYPGSGNTKYNEKFQGRFVFSVDTSASTAYLQISSLKAEDTAVYFCANYGNYWFAVWGQGTLVTVSS VL: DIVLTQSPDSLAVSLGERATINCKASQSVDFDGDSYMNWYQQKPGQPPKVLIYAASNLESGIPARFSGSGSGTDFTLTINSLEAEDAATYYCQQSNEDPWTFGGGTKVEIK
Response: 1.21

Prompt: Retrieve Fold IC50 vs H3/L3 measured for AC10 H3.32/L3 (antibody, IgG1, name in Kabat numbering, V domains shown) VH: QIQLVQSGPEVKKPGASVKVSCKASGYTFTDYYITWVRQAPGQGLEWMGWIYPGSGNTIYNEKFQGRFVFSVDTSASTAYLQISSLKAEDTAVYFCANYGNYWFAYWGQGTLVTVSS VL: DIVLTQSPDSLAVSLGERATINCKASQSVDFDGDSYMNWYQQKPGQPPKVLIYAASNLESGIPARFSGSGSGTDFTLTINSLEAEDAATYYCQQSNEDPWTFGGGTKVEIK and print it.
Response: 1.09
